test: Aerated and tapped bulk density of SB-207266-A; type: physicochemical; conditions: SB-207266-A batches from Description 1
Param threshold (0.3 g/mL) applies to Tapped bulk Density; output 1.0 when value >= threshold, 0.0 when value < threshold.

1) CCCCN1CCC(CNC(=O)c2c3n(c4ccccc24)CCCO3)CC1.Cl [BDC-G-04C]; 1.0
2) CCCCN1CCC(CNC(=O)c2c3n(c4ccccc24)CCCO3)CC1.Cl [BDC-H-01C]; 0.0
3) CCCCN1CCC(CNC(=O)c2c3n(c4ccccc24)CCCO3)CC1.Cl [BDC-G-03C]; 1.0
